- System: E. coli
- Type: cell-based
Bridge positions count the residues as written; N and C are the ends. Square brackets hold non-standard residues; d marks the D form. Peptide text beside a SMILES is read from it. * marks the point of attachment. aIle = CC[C@@H](C)[C@H](N)C(=O)O; NMeL = CN[C@@H](CC(C)C)C(=O)O; dOrn = NCCC[C@@H](N)C(=O)O; Heptanoyl = CCCCCCC(=O)*; Octanoyl = CCCCCCCC(=O)*; Orn = NCCC[C@H](N)C(=O)O; Propionyl = CCC(=O)*
Answer each item with its documented MIC.

// each listed compound needs a value for MIC
1. CCCCCCCC(=O)N[C@@H]1CCCNC(=O)[C@H](CO)NC(=O)[C@H](CO)NC(=O)[C@H]([C@H](C)CC)NC(=O)[C@H](CC(C)C)N(C)C1=O [S15, C8-Globomycin(N-D-Orn)] (Octanoyl-[dOrn][NMeL][aIle]SS; lactam 1-C)
2. CCC(=O)N[C@H]1CCCCNC(=O)[C@H](CO)NC(=O)[C@H](CO)NC(=O)[C@H]([C@H](C)CC)NC(=O)[C@H](CC(C)C)N(C)C1=O [S5, C3-Globomycin(N-Lys)] (Propionyl-K[NMeL][aIle]SS; lactam 1-C)
3. CCCCCCC(=O)N[C@H]1CCCCNC(=O)[C@H](CO)NC(=O)[C@H](CO)NC(=O)[C@H]([C@H](C)CC)NC(=O)[C@H](CC(C)C)N(C)C1=O [S9, C7-Globomycin(N-Lys)] (Heptanoyl-K[NMeL][aIle]SS; lactam 1-C)
4. CCCCCCCC(=O)N[C@@H]1CCCCNC(=O)[C@H](CO)NC(=O)[C@H](CO)NC(=O)[C@H]([C@H](C)CC)NC(=O)[C@H](CC(C)C)N(C)C1=O [S14, C8-Globomycin(N-D-Lys)] (Octanoyl-[dK][NMeL][aIle]SS; lactam 1-C)

1: > 200 µg/mL; 2: > 200 µg/mL; 3: 100 µg/mL; 4: > 200 µg/mL

For CCCCCCCC(=O)N[C@H]1CCCNC(=O)[C@H](CO)NC(=O)[C@H](CO)NC(=O)[C@H]([C@H](C)CC)NC(=O)[C@H](CC(C)C)N(C)C1=O [S11, C8-Globomycin(N-Orn)] (Octanoyl-[Orn][NMeL][aIle]SS; lactam 1-C) the compound record lists MIC as > 200 µg/mL
